B1: library; a variant is named by its letters at N, in order (parent)
chain: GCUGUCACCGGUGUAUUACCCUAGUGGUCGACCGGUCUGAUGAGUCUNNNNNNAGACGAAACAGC

# Variants of: B1
# test: normalized RNA/DNA level with ligand (relative to sTRSVctl = 100) (log10 (% of sTRSVctl)); ligand: hypoxanthine (xanthine aptamer); higher = less ribozyme self-cleavage, higher mRNA level
# test-context: ligand concentration (+) RNA-Seq: 5 mM, HEK293T, reporter: mCherry (pCS4076), ligand present: yes
Documented normalized RNA/DNA level with ligand (log10) across a set of variants
observation-type: normalized RNA/DNA level with ligand (log10)

# residue-codes, meas-value
measured = [
    ("GCUGUCACCGGUGUAUUACCCUAGUGGUCGACCGGUCUGAUGAGUCUGGGUGCAGACGAAACAGC [GGGUGC]", 1.9),
    ("GCUGUCACCGGUGUAUUACCCUAGUGGUCGACCGGUCUGAUGAGUCUGACGCCAGACGAAACAGC [GACGCC]", 1.9),
    ("GCUGUCACCGGUGUAUUACCCUAGUGGUCGACCGGUCUGAUGAGUCUCCGCGAAGACGAAACAGC [CCGCGA]", 1.88),
    ("GCUGUCACCGGUGUAUUACCCUAGUGGUCGACCGGUCUGAUGAGUCUUGCAUGAGACGAAACAGC [UGCAUG]", 1.9),
    ("GCUGUCACCGGUGUAUUACCCUAGUGGUCGACCGGUCUGAUGAGUCUCGAAUCAGACGAAACAGC [CGAAUC]", 1.98),
    ("GCUGUCACCGGUGUAUUACCCUAGUGGUCGACCGGUCUGAUGAGUCUGUAAGCAGACGAAACAGC [GUAAGC]", 1.89),
    ("GCUGUCACCGGUGUAUUACCCUAGUGGUCGACCGGUCUGAUGAGUCUCGAUGAAGACGAAACAGC [CGAUGA]", 1.93),
    ("GCUGUCACCGGUGUAUUACCCUAGUGGUCGACCGGUCUGAUGAGUCUUCCGAGAGACGAAACAGC [UCCGAG]", 1.82),
    ("GCUGUCACCGGUGUAUUACCCUAGUGGUCGACCGGUCUGAUGAGUCUGAACCAAGACGAAACAGC [GAACCA]", 1.95),
    ("GCUGUCACCGGUGUAUUACCCUAGUGGUCGACCGGUCUGAUGAGUCUCGAGGAAGACGAAACAGC [CGAGGA]", 1.97),
    ("GCUGUCACCGGUGUAUUACCCUAGUGGUCGACCGGUCUGAUGAGUCUUGCGAAAGACGAAACAGC [UGCGAA]", 1.86),
    ("GCUGUCACCGGUGUAUUACCCUAGUGGUCGACCGGUCUGAUGAGUCUCUCUGGAGACGAAACAGC [CUCUGG]", 1.94),
    ("GCUGUCACCGGUGUAUUACCCUAGUGGUCGACCGGUCUGAUGAGUCUAGUUUAAGACGAAACAGC [AGUUUA]", 1.93),
    ("GCUGUCACCGGUGUAUUACCCUAGUGGUCGACCGGUCUGAUGAGUCUUCAUGGAGACGAAACAGC [UCAUGG]", 1.9),
    ("GCUGUCACCGGUGUAUUACCCUAGUGGUCGACCGGUCUGAUGAGUCUUAUCACAGACGAAACAGC [UAUCAC]", 1.91),
    ("GCUGUCACCGGUGUAUUACCCUAGUGGUCGACCGGUCUGAUGAGUCUUGAGCAAGACGAAACAGC [UGAGCA]", 1.97),
    ("GCUGUCACCGGUGUAUUACCCUAGUGGUCGACCGGUCUGAUGAGUCUUACUCGAGACGAAACAGC [UACUCG]", 1.93),
    ("GCUGUCACCGGUGUAUUACCCUAGUGGUCGACCGGUCUGAUGAGUCUUAGCUCAGACGAAACAGC [UAGCUC]", 1.98),
    ("GCUGUCACCGGUGUAUUACCCUAGUGGUCGACCGGUCUGAUGAGUCUAGCAUUAGACGAAACAGC [AGCAUU]", 1.92),
    ("GCUGUCACCGGUGUAUUACCCUAGUGGUCGACCGGUCUGAUGAGUCUAACACAAGACGAAACAGC [AACACA]", 1.9),
    ("GCUGUCACCGGUGUAUUACCCUAGUGGUCGACCGGUCUGAUGAGUCUGUUACGAGACGAAACAGC [GUUACG]", 1.88),
    ("GCUGUCACCGGUGUAUUACCCUAGUGGUCGACCGGUCUGAUGAGUCUUUCCCUAGACGAAACAGC [UUCCCU]", 2),
    ("GCUGUCACCGGUGUAUUACCCUAGUGGUCGACCGGUCUGAUGAGUCUUUAACAAGACGAAACAGC [UUAACA]", 1.93),
    ("GCUGUCACCGGUGUAUUACCCUAGUGGUCGACCGGUCUGAUGAGUCUCUAGAUAGACGAAACAGC [CUAGAU]", 1.96),
    ("GCUGUCACCGGUGUAUUACCCUAGUGGUCGACCGGUCUGAUGAGUCUACCCUCAGACGAAACAGC [ACCCUC]", 1.94),
    ("GCUGUCACCGGUGUAUUACCCUAGUGGUCGACCGGUCUGAUGAGUCUUUUGCGAGACGAAACAGC [UUUGCG]", 1.91),
    ("GCUGUCACCGGUGUAUUACCCUAGUGGUCGACCGGUCUGAUGAGUCUGACAUUAGACGAAACAGC [GACAUU]", 1.92),
    ("GCUGUCACCGGUGUAUUACCCUAGUGGUCGACCGGUCUGAUGAGUCUGGCCGCAGACGAAACAGC [GGCCGC]", 1.88),
    ("GCUGUCACCGGUGUAUUACCCUAGUGGUCGACCGGUCUGAUGAGUCUGUUAGGAGACGAAACAGC [GUUAGG]", 1.8),
    ("GCUGUCACCGGUGUAUUACCCUAGUGGUCGACCGGUCUGAUGAGUCUGGUAACAGACGAAACAGC [GGUAAC]", 1.96),
    ("GCUGUCACCGGUGUAUUACCCUAGUGGUCGACCGGUCUGAUGAGUCUUGGCGGAGACGAAACAGC [UGGCGG]", 1.97),
    ("GCUGUCACCGGUGUAUUACCCUAGUGGUCGACCGGUCUGAUGAGUCUGGAACUAGACGAAACAGC [GGAACU]", 1.93),
    ("GCUGUCACCGGUGUAUUACCCUAGUGGUCGACCGGUCUGAUGAGUCUCUGUGCAGACGAAACAGC [CUGUGC]", 1.91),
    ("GCUGUCACCGGUGUAUUACCCUAGUGGUCGACCGGUCUGAUGAGUCUACAGGUAGACGAAACAGC [ACAGGU]", 1.86),
    ("GCUGUCACCGGUGUAUUACCCUAGUGGUCGACCGGUCUGAUGAGUCUGACAUCAGACGAAACAGC [GACAUC]", 1.97),
    ("GCUGUCACCGGUGUAUUACCCUAGUGGUCGACCGGUCUGAUGAGUCUCGUCCAAGACGAAACAGC [CGUCCA]", 1.96),
]
